Cited source: patent US20250215100A1

Each record here notes measured Maximum MFI.
# tested on: T1, human CD40 on cells (human, UniProt P25942 21-277)
# T1 construct: whole, on cells; The cell line used is named in each row's assay; also called hCD40; TNFRSF5
# T1 sequence (P25942 21-277): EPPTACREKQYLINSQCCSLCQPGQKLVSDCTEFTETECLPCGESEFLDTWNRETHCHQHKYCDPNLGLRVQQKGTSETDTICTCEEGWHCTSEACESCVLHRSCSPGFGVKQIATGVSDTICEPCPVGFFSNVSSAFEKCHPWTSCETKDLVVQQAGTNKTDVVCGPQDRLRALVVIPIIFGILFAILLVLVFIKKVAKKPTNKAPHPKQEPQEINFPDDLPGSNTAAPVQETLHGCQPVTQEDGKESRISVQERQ
# assay comment: FACS, Raji cells
# output: bare number, implied unit MFI

Before answering, review these 2 worked examples.
[[record]]
binder = "PR006507 (antibody, human IgG1, kappa, V domains shown, PR003379 variant L:S93E; human IgG1 L234A, L235A, G237A) VH: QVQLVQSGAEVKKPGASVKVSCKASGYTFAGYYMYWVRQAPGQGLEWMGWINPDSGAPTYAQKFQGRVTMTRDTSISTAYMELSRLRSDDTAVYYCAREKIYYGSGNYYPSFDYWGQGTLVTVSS VL: DIQLTQSPSFLSASVGDRVTITCRASQGISSYLAWYQQKPGKAPKLLIYAASTLQSGVPSRFSGSGSGTEFTLTISSLQPEDFATYYCQQLNEYPWTFGQGTKVEIKR"
value_reported = 12300

[[record]]
binder = "PR006511 (antibody, human IgG1, kappa, V domains shown, PR003379 variant L:S93N; human IgG1 L234A, L235A, G237A) VH: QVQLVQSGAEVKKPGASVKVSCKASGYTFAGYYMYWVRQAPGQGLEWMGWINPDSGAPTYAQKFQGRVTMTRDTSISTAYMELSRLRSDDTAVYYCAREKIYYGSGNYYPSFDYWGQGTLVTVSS VL: DIQLTQSPSFLSASVGDRVTITCRASQGISSYLAWYQQKPGKAPKLLIYAASTLQSGVPSRFSGSGSGTEFTLTISSLQPEDFATYYCQQLNNYPWTFGQGTKVEIKR"
value_reported = 11800


Proceeding to the next binder to report its Maximum MFI.
Reported Maximum MFI for PR006502 (antibody, human IgG1, kappa, V domains shown, PR003379 variant L:N92D; human IgG1 L234A, L235A, G237A) VH: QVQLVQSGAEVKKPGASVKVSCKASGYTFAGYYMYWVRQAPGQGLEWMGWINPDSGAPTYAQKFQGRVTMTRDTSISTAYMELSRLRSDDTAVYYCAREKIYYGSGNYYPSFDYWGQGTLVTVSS VL: DIQLTQSPSFLSASVGDRVTITCRASQGISSYLAWYQQKPGKAPKLLIYAASTLQSGVPSRFSGSGSGTEFTLTISSLQPEDFATYYCQQLDSYPWTFGQGTKVEIKR : what is it?
9040
